# experimental.target: Cannabinoid receptor 2 (Homo sapiens)
# Sequence (P34972 whole entry): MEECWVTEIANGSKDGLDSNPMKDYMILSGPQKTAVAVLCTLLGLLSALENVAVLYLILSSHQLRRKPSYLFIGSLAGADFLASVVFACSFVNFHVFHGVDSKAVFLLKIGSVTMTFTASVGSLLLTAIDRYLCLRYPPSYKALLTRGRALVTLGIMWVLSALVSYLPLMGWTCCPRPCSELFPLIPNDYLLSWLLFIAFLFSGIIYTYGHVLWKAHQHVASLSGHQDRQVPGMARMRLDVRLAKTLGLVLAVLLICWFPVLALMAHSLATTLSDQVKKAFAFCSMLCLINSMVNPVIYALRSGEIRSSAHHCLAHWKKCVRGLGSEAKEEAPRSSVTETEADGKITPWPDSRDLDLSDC
# experimental.details: Inverse agonist activity at human CB2 receptor expressed in HEK293 cells assessed as forskolin-stimulated cAMP accumulation after 30 mins by HTRF assay
parameter: EC50

What value of measured EC50 is listed for Nc1nc(NC2CCN(S(=O)(=O)C(F)(F)F)CC2)c2cc(C(c3ccc(Cl)cc3)c3ccc(Cl)cc3)ccc2n1 ?
> 10 µM
